Data origin, for the record: patent US20260035459A1

# System: T1, soluble recombinant IGLV3-21^R110-harboring B-cell receptor, monomeric human IgM (170.5 kDa) (human)
# T1 construct: Made in 293-HEK cells by transient expression and used as the analyte in BLI; also called soluble IGLV3-21^R110 B-cell receptor; soluble form of the IGLV3-21^R110 BCR
# T1 sequence (heavy, as listed by the source limits assumed, chain 1 of 2): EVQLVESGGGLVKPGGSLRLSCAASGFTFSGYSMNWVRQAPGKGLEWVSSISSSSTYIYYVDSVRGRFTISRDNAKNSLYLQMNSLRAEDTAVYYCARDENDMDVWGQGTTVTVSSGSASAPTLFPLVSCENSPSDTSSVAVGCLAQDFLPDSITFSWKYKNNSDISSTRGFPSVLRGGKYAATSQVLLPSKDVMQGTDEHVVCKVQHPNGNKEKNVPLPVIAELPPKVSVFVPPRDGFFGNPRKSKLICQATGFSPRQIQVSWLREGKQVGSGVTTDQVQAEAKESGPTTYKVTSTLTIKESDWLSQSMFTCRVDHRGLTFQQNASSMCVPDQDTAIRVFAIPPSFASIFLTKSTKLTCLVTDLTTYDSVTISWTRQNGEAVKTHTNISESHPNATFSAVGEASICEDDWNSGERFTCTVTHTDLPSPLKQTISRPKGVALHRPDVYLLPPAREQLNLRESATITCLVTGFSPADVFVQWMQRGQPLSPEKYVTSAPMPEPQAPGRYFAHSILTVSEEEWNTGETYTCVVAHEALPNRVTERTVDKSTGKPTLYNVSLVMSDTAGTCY
# T1 sequence (light, as listed by the source limits assumed, chain 2 of 2): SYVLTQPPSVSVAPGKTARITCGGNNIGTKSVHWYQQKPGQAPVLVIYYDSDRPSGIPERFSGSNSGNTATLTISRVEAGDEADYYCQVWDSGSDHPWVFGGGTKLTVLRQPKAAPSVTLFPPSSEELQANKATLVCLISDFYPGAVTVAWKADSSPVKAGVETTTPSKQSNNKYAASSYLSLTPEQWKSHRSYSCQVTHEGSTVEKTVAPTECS
# Assay remarks: BLI (Fortebio Octet), antibody captured by anti-human IgG Fc, soluble BCR (monomeric IgM) as analyte, 1:1 model
Below, each entry is listed alongside its reported Kd.
Give a bare numeral; the unit nM is implied.

Sample answers from the record:
>  <Binder>
humanized anti-IGLV3-21^R110 antibody HC6-LC9 (antibody, human IgG1, V domains shown, Expressed in CHO cells) VH: QVQLQESGPGLVKPSETLSLTCTVSGFSLTSYGIHWIRQSPGRGLEWIGVIWRGGGTDSNAAFMSRVTISVDTSKSQVSLKLGSVTAADTAIYYCARSRYDEEESMNYWGQGTSVTVSS VL: EIVLTQSPGTLSLSPGERATLSCRASGNIHSYLAWYQQKPGQAPRLLIYNAKTLADGIPDRFSGSGSGTDYTLTISRLEPEDFAVYYCQHFWNTPPTFGAGTKLELK

>  <Kd, nM>
0.291

$$$$
>  <Binder>
humanized anti-IGLV3-21^R110 antibody HC6-LC7 (antibody, human IgG1, V domains shown, Expressed in CHO cells) VH: QVQLQESGPGLVKPSETLSLTCTVSGFSLTSYGIHWIRQSPGRGLEWIGVIWRGGGTDSNAAFMSRVTISVDTSKSQVSLKLGSVTAADTAIYYCARSRYDEEESMNYWGQGTSVTVSS VL: QIQLTQSPSFLSASVGDSVTITCRASGNIHSYLAWYQQKPGKAPQLLIYNAKTLADGVPSRFSGSGSGTEYTLTISSLQPEDFATYYCQHFWNTPPTFGAGTKLELK

>  <Kd, nM>
0.347

$$$$

# ---- query binder ----
Which Kd reading was recorded for the binder humanized anti-IGLV3-21^R110 antibody HC6-LC8 (antibody, human IgG1, V domains shown, Expressed in CHO cells) VH: QVQLQESGPGLVKPSETLSLTCTVSGFSLTSYGIHWIRQSPGRGLEWIGVIWRGGGTDSNAAFMSRVTISVDTSKSQVSLKLGSVTAADTAIYYCARSRYDEEESMNYWGQGTSVTVSS VL: EIVLTQSPATLSLSPGERATLSCRASGNIHSYLAWYQQKPGQAPRLLIYNAKTLADGIPARFSGSGSGTDYTLTISSLEPEDFASYYCQHFWNTPPTFGAGTKLELK ?
0.277
